# Target Of Assay: TEC (Homo sapiens)
# Sequence (P42680 whole entry): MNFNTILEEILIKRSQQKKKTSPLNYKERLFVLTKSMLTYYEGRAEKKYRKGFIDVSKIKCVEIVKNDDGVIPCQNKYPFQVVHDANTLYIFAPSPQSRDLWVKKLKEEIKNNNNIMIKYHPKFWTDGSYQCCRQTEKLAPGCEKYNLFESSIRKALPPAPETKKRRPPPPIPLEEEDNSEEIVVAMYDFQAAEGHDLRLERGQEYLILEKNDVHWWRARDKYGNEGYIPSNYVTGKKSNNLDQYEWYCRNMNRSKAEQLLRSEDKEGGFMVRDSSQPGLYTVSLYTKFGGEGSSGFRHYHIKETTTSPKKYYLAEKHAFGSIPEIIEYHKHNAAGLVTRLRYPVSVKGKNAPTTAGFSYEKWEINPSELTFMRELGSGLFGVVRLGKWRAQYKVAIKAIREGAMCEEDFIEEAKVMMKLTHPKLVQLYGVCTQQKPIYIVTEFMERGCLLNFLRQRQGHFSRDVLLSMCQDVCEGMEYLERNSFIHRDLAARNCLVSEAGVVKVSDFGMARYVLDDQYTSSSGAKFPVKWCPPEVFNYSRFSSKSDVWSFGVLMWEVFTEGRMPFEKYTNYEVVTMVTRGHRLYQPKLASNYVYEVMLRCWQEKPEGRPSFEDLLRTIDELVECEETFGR
# Assay Details: scanMAX binding POC, TEC
# Particulars: 1 μM
Reported TEC binding POC by item:

O=C(c1ccc(Oc2ccccc2)cc1Cl)c1c[nH]c2ncnc(N[C@@H]3CC[C@@H](CO)OC3)c12 [Nemtabrutinib] :: 7.3% of control
C=CC(=O)N1CCC(CNc2ncnc(N)c2-c2ccc(Oc3ccccc3)cc2)CC1 [Evobrutinib] :: 10% of control
C=CC(=O)N(C)CCOc1c(N)ncnc1-c1cc(F)cc(NC(=O)c2ccc(C3CC3)cc2F)c1C [Remibrutinib] :: 20% of control
C=CC(=O)N1CCC([C@@H]2CCNc3c(C(N)=O)c(-c4ccc(Oc5ccccc5)cc4)nn32)CC1 [Zanubrutinib] :: 8.7% of control
CC#CC(=O)N1CCC[C@H]1c1nc(-c2ccc(C(=O)Nc3ccccn3)cc2)c2c(N)nccn12 [Acalabrutinib] :: 14% of control
CC#CC(=O)N[C@H]1CCCN(c2c(F)cc(C(N)=O)c3[nH]c(C)c(C)c23)C1 [Branebrutinib] :: 7.8% of control
COc1ccc(F)cc1C(=O)NCc1ccc(-c2nn([C@@H](C)C(F)(F)F)c(N)c2C(N)=O)cc1 [Pirtobrutinib] :: 12% of control

Let's switch to this compound now.
Query (compound): C=CC(=O)N1CCC[C@@H](c2ccc(C(N)=O)c3[nH]ccc23)C1 [Elsubrutinib] ; field requested: TEC binding POC
18% of control

* * *

# Target Of Assay: EGFR (Homo sapiens, UniProt P00533)
# Sequence (P00533 25-1210): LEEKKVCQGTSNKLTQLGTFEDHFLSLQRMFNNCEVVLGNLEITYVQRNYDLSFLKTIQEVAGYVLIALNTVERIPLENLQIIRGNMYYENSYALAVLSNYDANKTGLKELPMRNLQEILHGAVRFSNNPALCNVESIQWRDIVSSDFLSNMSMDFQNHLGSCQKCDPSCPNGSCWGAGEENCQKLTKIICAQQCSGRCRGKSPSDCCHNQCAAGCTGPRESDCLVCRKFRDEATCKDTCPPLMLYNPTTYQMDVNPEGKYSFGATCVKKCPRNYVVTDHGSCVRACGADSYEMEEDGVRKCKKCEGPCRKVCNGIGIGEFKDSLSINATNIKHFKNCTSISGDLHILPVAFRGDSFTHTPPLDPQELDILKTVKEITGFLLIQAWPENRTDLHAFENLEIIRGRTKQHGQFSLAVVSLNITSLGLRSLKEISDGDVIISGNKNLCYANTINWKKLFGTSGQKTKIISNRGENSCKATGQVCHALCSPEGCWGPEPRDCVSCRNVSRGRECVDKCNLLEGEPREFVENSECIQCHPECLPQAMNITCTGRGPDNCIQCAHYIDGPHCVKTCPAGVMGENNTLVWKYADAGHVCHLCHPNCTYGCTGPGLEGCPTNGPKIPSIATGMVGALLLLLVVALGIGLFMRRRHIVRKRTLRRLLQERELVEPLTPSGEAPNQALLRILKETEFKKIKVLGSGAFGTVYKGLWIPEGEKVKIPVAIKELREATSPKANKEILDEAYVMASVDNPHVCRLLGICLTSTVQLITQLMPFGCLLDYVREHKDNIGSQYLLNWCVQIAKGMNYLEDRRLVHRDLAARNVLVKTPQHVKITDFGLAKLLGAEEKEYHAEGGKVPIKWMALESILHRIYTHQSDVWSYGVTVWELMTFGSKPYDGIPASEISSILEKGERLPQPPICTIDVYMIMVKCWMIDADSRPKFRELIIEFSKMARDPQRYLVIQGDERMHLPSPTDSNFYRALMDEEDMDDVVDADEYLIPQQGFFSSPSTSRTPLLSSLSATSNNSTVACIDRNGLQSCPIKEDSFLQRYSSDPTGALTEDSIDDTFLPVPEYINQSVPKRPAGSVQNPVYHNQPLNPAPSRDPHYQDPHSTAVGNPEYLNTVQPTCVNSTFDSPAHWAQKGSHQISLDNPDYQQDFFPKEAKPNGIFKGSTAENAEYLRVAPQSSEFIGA
# Assay Details: scanMAX binding POC, EGFR
# Particulars: 1 μM
Recorded Metric: EGFR binding POC

Example entries and their recorded answers appear below.
O=C(c1ccc(Oc2ccccc2)cc1Cl)c1c[nH]c2ncnc(N[C@@H]3CC[C@@H](CO)OC3)c12 :: 0% of control
CC#CC(=O)N[C@H]1CCCN(c2c(F)cc(C(N)=O)c3[nH]c(C)c(C)c23)C1 :: 77% of control
C=CC(=O)N1CCC([C@@H]2CCNc3c(C(N)=O)c(-c4ccc(Oc5ccccc5)cc4)nn32)CC1 :: 0% of control
C[C@H]1CN(C2COC2)CCN1c1ccc(Nc2cc(-c3ccnc(N4CCn5c(cc6c5CC(C)(C)C6)C4=O)c3CO)cn(C)c2=O)nc1 :: 95% of control
COc1ccc(F)cc1C(=O)NCc1ccc(-c2nn([C@@H](C)C(F)(F)F)c(N)c2C(N)=O)cc1 :: 0.5% of control

Query (compound): C=CC(=O)Nc1cccc(Nc2nc(Nc3ccc(OCCOC)cc3)ncc2F)c1 ; field requested: EGFR binding POC
49% of control

// same read-out, input: C=CC(=O)N(C)CCOc1c(N)ncnc1-c1cc(F)cc(NC(=O)c2ccc(C3CC3)cc2F)c1C
99% of control

// same read-out, input: C=CC(=O)Nc1cccc(Oc2nc(Nc3ccc(N4CCN(C)CC4)cc3)nc3ccoc23)c1
1.2% of control

* * *

# Target Of Assay: ERBB4 (Homo sapiens)
# Sequence (Q15303 26-1308): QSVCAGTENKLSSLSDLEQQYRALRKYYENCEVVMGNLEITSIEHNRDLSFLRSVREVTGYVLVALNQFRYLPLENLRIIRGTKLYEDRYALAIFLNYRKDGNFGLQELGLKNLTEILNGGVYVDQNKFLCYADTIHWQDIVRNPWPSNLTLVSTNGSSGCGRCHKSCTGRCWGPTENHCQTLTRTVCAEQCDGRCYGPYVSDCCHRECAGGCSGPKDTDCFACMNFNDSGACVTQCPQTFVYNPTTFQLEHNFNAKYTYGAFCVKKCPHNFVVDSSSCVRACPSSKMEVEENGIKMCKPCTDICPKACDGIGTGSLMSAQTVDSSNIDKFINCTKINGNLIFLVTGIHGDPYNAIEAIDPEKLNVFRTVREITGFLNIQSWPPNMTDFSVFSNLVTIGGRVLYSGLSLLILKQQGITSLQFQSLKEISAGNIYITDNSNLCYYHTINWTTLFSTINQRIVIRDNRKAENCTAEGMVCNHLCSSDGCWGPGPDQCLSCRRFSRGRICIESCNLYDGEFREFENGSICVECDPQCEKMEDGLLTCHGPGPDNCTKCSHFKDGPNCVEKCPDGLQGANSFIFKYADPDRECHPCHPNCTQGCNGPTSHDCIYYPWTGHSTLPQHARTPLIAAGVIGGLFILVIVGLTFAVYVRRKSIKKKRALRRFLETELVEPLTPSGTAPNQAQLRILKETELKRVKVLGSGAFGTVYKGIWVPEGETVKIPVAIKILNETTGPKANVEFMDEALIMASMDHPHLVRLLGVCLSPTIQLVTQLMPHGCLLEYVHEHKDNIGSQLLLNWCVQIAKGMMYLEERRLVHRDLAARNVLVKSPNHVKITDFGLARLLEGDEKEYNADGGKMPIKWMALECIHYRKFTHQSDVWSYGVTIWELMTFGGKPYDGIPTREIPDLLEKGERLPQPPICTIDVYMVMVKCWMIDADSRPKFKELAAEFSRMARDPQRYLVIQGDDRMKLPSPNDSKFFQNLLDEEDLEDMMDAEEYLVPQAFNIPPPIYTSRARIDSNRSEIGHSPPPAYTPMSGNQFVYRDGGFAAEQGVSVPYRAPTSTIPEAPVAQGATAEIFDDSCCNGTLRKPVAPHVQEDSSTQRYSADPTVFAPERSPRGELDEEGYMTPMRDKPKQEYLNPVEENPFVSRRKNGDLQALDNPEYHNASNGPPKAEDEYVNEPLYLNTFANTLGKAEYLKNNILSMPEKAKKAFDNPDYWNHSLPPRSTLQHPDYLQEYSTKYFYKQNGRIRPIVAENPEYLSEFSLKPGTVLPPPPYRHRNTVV
# Assay Details: scanMAX binding POC, ERBB4
# Particulars: 1 μM
Reported ERBB4 binding POC by item:

Example entries and their recorded answers appear below.
C[C@H]1CN(C2COC2)CCN1c1ccc(Nc2cc(-c3ccnc(N4CCn5c(cc6c5CC(C)(C)C6)C4=O)c3CO)cn(C)c2=O)nc1 :: 100% of control
CC#CC(=O)N1CC[C@@H](n2c(=O)n(-c3ccc(Oc4ccccc4)cc3)c3c(N)ncnc32)C1 :: 85% of control
CC#CC(=O)N1CCC[C@H]1c1nc(-c2ccc(C(=O)Nc3ccccn3)cc2)c2c(N)nccn12 :: 6.9% of control
C=CC(=O)Nc1cccc(Nc2nc(Nc3ccc(OCCOC)cc3)ncc2F)c1 :: 17% of control

Let's switch to this molecule now.
Query (molecule): C=CC(=O)Nc1cccc(Oc2nc(Nc3ccc(N4CCN(C)CC4)cc3)nc3ccoc23)c1 ; field requested: ERBB4 binding POC
0.15% of control
